- assayTarget: T1, human TROP2-his protein (human, UniProt P09758 27-274)
- T1 construct: Biotin-labelled in the ELISAs, unlabelled analyte in Biacore; also called biotin-labeled human TROP2-his protein; biotin human Trop2-his
- T1 sequence: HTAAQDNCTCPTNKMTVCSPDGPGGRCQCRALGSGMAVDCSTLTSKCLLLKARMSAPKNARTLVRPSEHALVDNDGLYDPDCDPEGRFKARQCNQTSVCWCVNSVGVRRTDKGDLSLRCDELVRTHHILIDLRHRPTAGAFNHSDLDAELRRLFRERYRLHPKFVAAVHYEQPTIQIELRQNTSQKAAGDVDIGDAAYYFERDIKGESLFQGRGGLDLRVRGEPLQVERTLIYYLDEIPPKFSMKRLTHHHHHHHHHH
- testSummary: SPR Biacore T200, supernatant antibody captured on anti-human IgG CM5 chip, 40 nM human TROP2-his
experimentalEndpoint: koff (s⁻¹)
Please reply with the bare figure in s⁻¹ and do not write the unit itself.

INSERT INTO results (binder, recordednumber) VALUES
  ('huA1E4F7D4-V14 (antibody, human IgG1, kappa, V domains shown, Positions of the X residues are given in the claims; Tested as cell supernatant) VH: QVQLVQSGAEVKKPGASVKVSCKASGYSFTTHWIHWVRQAPGQGLEWIGTIFPSNAYAVYNQKFRDRVTMTADRSISTAYIELSRLRSDDTAVYYCARASYFDYWGQGTTVTVSS VL: EIVLTQSPATLSLSPGERATLSCRASQNIGTSIHWFQQKPGGAPRLLIKYASESISGIPSRFSGSGSGTDFTLTISSLEPEDFAVYYCQHSHSWPFTFGQGTKLEIKR', 0.000193);

## Task Quick check: koff of huA1E4F7D4-V20 (antibody, human IgG1, kappa, V domains shown, Positions of the X residues are given in the claims; Tested as cell supernatant) VH: QVQLVQSGAEVKKPGASVKVSCKASGYSFTTHWIHWVRQAPGQGLEWIGTIFPSNAYAVYNQKFRDRATMTRDRSISTAYIELSRLRSDDTAVYYCARASYFDYWGQGTTVTVSS VL: EIVLTQSPATLSLSPGERATLSCRASQNIGTSIHWFQQKPGGSPRLLIYYASESISGIPSRFSGSGSGTDFTLTISSLEPEDFAVYYCQHSHSWPFTFGQGTKLEIKR ?
## Result 0.00029

## Task Entry huA1E4F7D4-V8 (antibody, human IgG1, kappa, V domains shown, Positions of the X residues are given in the claims; Tested as cell supernatant) VH: QVQLVQSGAEVKKPGASVKVSCKASGYTFTTHWIHWVRQAPGQGLEWIGTIFPSNAYAVYNQKFRDRATMTADRSISTAYIELSRLRSDDTAVYYCARASYFDYWGQGTTVTVSS VL: EIVLTQSPATLSLSPGERATLSCRASQNIGTSIHWFQQKPGQSPRLLIKYASESISGIPSRFSGSGSGTDFTLTISSLEPEDFAVYYCQHSHSWPFTFGQGTKLEIKR : reported koff = ?
## Result 0.000195

Data credit: patent US20240207432A1
